Target: CK1α (Homo sapiens, UniProt P48729+Q96SW2)
Sequence (P48729 whole entry): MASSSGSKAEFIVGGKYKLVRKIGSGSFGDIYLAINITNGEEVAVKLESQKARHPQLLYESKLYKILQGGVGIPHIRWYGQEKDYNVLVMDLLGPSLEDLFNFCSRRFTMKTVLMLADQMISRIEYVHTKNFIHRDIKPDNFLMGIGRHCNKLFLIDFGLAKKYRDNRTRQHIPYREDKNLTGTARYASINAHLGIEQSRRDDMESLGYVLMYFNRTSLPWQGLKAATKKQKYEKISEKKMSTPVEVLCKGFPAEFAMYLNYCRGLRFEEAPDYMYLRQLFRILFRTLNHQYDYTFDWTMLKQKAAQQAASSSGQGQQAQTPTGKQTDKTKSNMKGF
Sequence (Q96SW2 whole entry): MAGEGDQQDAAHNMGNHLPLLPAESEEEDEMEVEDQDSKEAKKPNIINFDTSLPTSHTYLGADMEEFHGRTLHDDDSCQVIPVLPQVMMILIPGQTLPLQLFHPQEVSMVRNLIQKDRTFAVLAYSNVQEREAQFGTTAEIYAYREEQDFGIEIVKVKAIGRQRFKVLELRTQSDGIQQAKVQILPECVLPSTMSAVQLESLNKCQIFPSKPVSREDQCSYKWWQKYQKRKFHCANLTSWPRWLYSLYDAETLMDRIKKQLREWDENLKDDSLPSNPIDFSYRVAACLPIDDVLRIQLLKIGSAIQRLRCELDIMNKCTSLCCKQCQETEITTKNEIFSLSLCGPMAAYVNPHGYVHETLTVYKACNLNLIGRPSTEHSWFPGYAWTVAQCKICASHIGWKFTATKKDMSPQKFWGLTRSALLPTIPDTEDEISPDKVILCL
Sequence (Q16531 whole entry partner): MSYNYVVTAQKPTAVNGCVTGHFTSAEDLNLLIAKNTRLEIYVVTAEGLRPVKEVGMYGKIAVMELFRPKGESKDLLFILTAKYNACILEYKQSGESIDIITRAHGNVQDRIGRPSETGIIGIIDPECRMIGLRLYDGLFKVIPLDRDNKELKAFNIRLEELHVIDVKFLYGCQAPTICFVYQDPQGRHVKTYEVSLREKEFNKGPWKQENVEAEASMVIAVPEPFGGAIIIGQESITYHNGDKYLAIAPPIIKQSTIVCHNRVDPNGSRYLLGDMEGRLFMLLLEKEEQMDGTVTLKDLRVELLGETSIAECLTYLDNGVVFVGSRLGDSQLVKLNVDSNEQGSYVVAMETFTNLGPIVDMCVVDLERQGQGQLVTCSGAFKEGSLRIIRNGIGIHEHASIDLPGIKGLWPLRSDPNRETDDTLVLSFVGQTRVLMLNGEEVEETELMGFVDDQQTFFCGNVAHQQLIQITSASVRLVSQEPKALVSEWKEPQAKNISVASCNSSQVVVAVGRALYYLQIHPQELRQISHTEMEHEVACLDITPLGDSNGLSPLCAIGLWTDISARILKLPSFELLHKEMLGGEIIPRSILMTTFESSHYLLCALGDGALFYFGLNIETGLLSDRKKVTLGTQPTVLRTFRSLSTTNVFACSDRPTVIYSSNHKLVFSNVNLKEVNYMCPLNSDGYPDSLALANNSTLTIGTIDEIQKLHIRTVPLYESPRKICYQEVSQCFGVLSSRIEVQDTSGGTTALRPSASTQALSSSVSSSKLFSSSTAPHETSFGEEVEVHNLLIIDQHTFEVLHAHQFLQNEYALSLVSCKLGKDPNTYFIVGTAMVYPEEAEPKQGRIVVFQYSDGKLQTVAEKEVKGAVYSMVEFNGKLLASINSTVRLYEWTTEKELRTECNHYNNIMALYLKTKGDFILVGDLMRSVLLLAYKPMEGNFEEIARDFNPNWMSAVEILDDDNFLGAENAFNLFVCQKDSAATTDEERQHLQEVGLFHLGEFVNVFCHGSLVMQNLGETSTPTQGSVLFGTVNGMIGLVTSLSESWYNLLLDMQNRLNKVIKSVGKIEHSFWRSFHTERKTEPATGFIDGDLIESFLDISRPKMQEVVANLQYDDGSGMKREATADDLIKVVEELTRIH
Test: CK1α degradation, flow cytometry in MV4-11 cells
Assay type: cell-based
Parameters: CK1α levels were determined in MV-4-11 cells using Jess (Protein Simple); host or cells: MV-4-11
Details: % reduction of CK1α compared to DMSO, MV4-11 cells at 316 nM for 16 hours, read-out: CK1α degradation classification
Structures can show the parent of a compound that is named as a salt.
Reported Dmax at 0.316 µM values for a set of compounds

Below are worked cases with known answers.
[
  {
    "COMPOUND": "NC[C@@H]1CC[C@@H](N(CCC2CC2)c2cccc3c2CN(C2CCC(=O)NC2=O)C3=O)C1 (some centres unmarked) [Compound 325A, HCl]",
    "PROPERTY_NAME": "Dmax at 0.316 µM",
    "REPORTED_MEASUREMENT": "> 75%"
  },
  {
    "COMPOUND": "NC[C@H]1CC[C@@H](N(CCC2CC2)c2cccc3c2CN(C2CCC(=O)NC2=O)C3=O)CO1 (some centres unmarked)",
    "PROPERTY_NAME": "Dmax at 0.316 µM",
    "REPORTED_MEASUREMENT": "> 75%"
  },
  {
    "COMPOUND": "CCCCCN(CCCCNCCCC)c1cccc2c1CN(C1CCC(=O)NC1=O)C2=O (centres unmarked) [Compound 166, HCl]",
    "PROPERTY_NAME": "Dmax at 0.316 µM",
    "REPORTED_MEASUREMENT": "> 75%"
  },
  {
    "COMPOUND": "CC(=O)N[C@H]1CC[C@H](N(CCCCN)c2cccc3c2CN(C2CCC(=O)NC2=O)C3=O)CC1 (some centres unmarked)",
    "PROPERTY_NAME": "Dmax at 0.316 µM",
    "REPORTED_MEASUREMENT": "50 to 75%"
  },
  {
    "COMPOUND": "N[C@H]1CC[C@H](N(CCCN2CCOCC2)c2cccc3c2CN(C2CCC(=O)NC2=O)C3=O)CC1 (some centres unmarked) [Compound 246, dihydrochloride]",
    "PROPERTY_NAME": "Dmax at 0.316 µM",
    "REPORTED_MEASUREMENT": "< 50%"
  },
  {
    "COMPOUND": "N[C@@H]1CC[C@@H](N(CC2CC2)c2cccc3c2CN(C2CCC(=O)NC2=O)C3=O)C[C@H]1F (some centres unmarked)",
    "PROPERTY_NAME": "Dmax at 0.316 µM",
    "REPORTED_MEASUREMENT": "50 to 75%"
  }
]

Now take the following compound into account.
Any idea what Dmax at 0.316 µM was measured for C/C=C/CCN(CCCCN)c1cccc2c1CN(C1CCC(=O)NC1=O)C2=O (centres unmarked) [Compound 93, hydrochloride] ?
> 75%

---

// values below are reported pIC50
System: MV-4-11 cells
Test: AML cell viability assay (RealTime-Glo)
Format: cell-based
Settings: Homo sapiens, MV4-11; IC50 class; MV-4-11 cells, RealTime-Glo after 44 hrs of treatment (TABLE 1); read-out: Cell viability classification
pIC50: −log10 of the molar value. Structures can show the parent of a compound that is named as a salt.

[
  {
    "COMPOUND": "CCCCN(C/C=C/CN)c1cccc2c1CN(C1CCC(=O)NC1=O)C2=O (centres unmarked)",
    "pIC50": "6.00 to 7.00"
  },
  {
    "COMPOUND": "CCCCN(CC#CCN)c1cccc2c1CN(C1CCC(=O)NC1=O)C2=O (centres unmarked)",
    "pIC50": "< 6.00"
  },
  {
    "COMPOUND": "N[C@H]1CC[C@H](N(CCCC2CCCO2)c2cccc3c2CN(C2CCC(=O)NC2=O)C3=O)CC1 (some centres unmarked) [Compound 346, HCl]",
    "pIC50": "6.00 to 7.00"
  },
  {
    "COMPOUND": "CCCN(CCN)c1cccc2c1CN(C1CCC(=O)NC1=O)C2=O (centres unmarked)",
    "pIC50": "< 6.00"
  },
  {
    "COMPOUND": "N[C@H]1CC[C@H](N(CCCc2ccccc2)c2cccc3c2CN(C2CCC(=O)NC2=O)C3=O)CC1 (some centres unmarked) [Compound 251, hydrochloride]",
    "pIC50": "> 7.00"
  },
  {
    "COMPOUND": "CCCCCN(c1cccc2c1CN(C1CCC(=O)NC1=O)C2=O)[C@H]1CC[C@@H](N)CC1 (some centres unmarked) [Compound 87, hydrochloride]",
    "pIC50": "> 7.00"
  },
  {
    "COMPOUND": "C/C=C\\CN(CCCCN)c1cccc2c1CN(C1CCC(=O)NC1=O)C2=O (centres unmarked)",
    "pIC50": "6.00 to 7.00"
  }
]

Now, please, on to the next compound.
Recorded pIC50 for CCCN(CCCCC(=O)NC)c1cccc2c1CN(C1CCC(=O)NC1=O)C2=O (centres unmarked) with MV-4-11 cells, please?
> 7.00

---

Target: CK1α (Homo sapiens, UniProt P48729+Q96SW2)
Assay: CK1α degradation, flow cytometry in MV4-11 cells
Format: cell-based
Design: CK1α levels were determined in MV-4-11 cells using Jess (Protein Simple); host or cells: MV-4-11
Conditions: % reduction of CK1α compared to DMSO, MV4-11 cells at 316 nM for 16 hours, read-out: CK1α degradation classification
Counter-ions that a name gives are not always drawn.
PROPERTY_NAME: Dmax at 0.316 µM

[
  {
    "COMPOUND": "O=C1CCC(N2Cc3c(cccc3N(CCCC(F)(F)F)[C@H]3CC[C@H](NCCC(F)(F)F)CC3)C2=O)C(=O)N1 (some centres unmarked)",
    "PROPERTY_NAME": "Dmax at 0.316 µM",
    "REPORTED_MEASUREMENT": "> 75%"
  },
  {
    "COMPOUND": "NC[C@]1(O)CC[C@H](N(CCCC(F)(F)F)c2cccc3c2CN(C2CCC(=O)NC2=O)C3=O)CC1 (some centres unmarked)",
    "PROPERTY_NAME": "Dmax at 0.316 µM",
    "REPORTED_MEASUREMENT": "< 50%"
  },
  {
    "COMPOUND": "N[C@H]1CC[C@H](N(CC2CC2)c2cccc3c2CN(C2CCC(=O)NC2=O)C3=O)CC1 (some centres unmarked) [Compound 235, hydrochloride]",
    "PROPERTY_NAME": "Dmax at 0.316 µM",
    "REPORTED_MEASUREMENT": "> 75%"
  }
]

// query Dmax at 0.316 µM value for entry N[C@H]1CC[C@H](N(CCC2CCOCC2)c2cccc3c2CN(C2CCC(=O)NC2=O)C3=O)CC1 (some centres unmarked) [Compound 240, hydrochloride]
< 50%

Which value of Dmax at 0.316 µM has been reported for CC#CCCN(CCCCN)c1cccc2c1CN(C1CCC(=O)NC1=O)C2=O (centres unmarked) [Compound 95, HCl] in the records?
< 50%

Item under review: NC[C@H]1CC[C@@H](N(CCC2CC2)c2cccc3c2CN(C2CCC(=O)NC2=O)C3=O)C1 (some centres unmarked) [Compound 326A, HCl] . Reported Dmax at 0.316 µM?
> 75%

Any idea what Dmax at 0.316 µM was measured for N[C@H]1CC[C@H](N(CCC2CCNCC2)c2cccc3c2CN(C2CCC(=O)NC2=O)C3=O)CC1 (some centres unmarked) ?
< 50%

Requested read-out: Dmax at 0.316 µM. Entry: N#CCCCN[C@H]1CC[C@H](N(CCC2CC2)c2cccc3c2CN(C2CCC(=O)NC2=O)C3=O)CC1 (some centres unmarked)
> 75%

Recorded Dmax at 0.316 µM of O=C1CCC(N2Cc3c(cccc3N(CCC3CC3)[C@H]3CC[C@H](NCC(=O)N4CCC4)CC3)C2=O)C(=O)N1 (some centres unmarked) , please.
> 75%

---

Reported Dmax by item:
Target: CK1α (Homo sapiens, UniProt P48729+Q96SW2)
Test: CK1α degradation, Jess assay in MV-4-11 cells
Format: cell-based
Set-up: CK1α levels were determined in MV-4-11 cells using Jess (Protein Simple); host or cells: MV-4-11; dose or concentration left out as unconfirmed
Conditions: MV4-11, % reduction of CK1α compared to DMSO, MV-4-11 cells for 16 hours, normalized to β-actin, read-out: CK1α degradation classification
Structures can show the parent of a compound that is named as a salt.

Record excerpt, results attached:
[
  {
    "MOLECULE": "CCCCCN(c1cccc2c1CN(C1CCC(=O)NC1=O)C2=O)[C@@H]1CC[C@@H](N)C1 (some centres unmarked) [Compound 323]",
    "PROPERTY_NAME": "Dmax",
    "REPORTED_MEASUREMENT": "> 75%"
  },
  {
    "MOLECULE": "CCCN(CCCCC(=O)NC)c1cccc2c1CN(C1CCC(=O)NC1=O)C2=O (centres unmarked) [Compound 63]",
    "PROPERTY_NAME": "Dmax",
    "REPORTED_MEASUREMENT": "> 75%"
  },
  {
    "MOLECULE": "C/C=C\\CN(CCCCN)c1cccc2c1CN(C1CCC(=O)NC1=O)C2=O (centres unmarked) [Compound 69]",
    "PROPERTY_NAME": "Dmax",
    "REPORTED_MEASUREMENT": "50 to 7500%"
  },
  {
    "MOLECULE": "CCCCCN(CCCCNC)c1cccc2c1CN(C1CCC(=O)NC1=O)C2=O (centres unmarked) [Compound 80]",
    "PROPERTY_NAME": "Dmax",
    "REPORTED_MEASUREMENT": "> 75%"
  },
  {
    "MOLECULE": "CC(C)CCCCCN(CCCCN)c1cccc2c1CN(C1CCC(=O)NC1=O)C2=O (centres unmarked) [Compound 52]",
    "PROPERTY_NAME": "Dmax",
    "REPORTED_MEASUREMENT": "> 75%"
  }
]

Quick check: Dmax on CK1α (Homo sapiens, UniProt P48729+Q96SW2), item CCCCCN(c1cccc2c1CN(C1CCC(=O)NC1=O)C2=O)[C@H]1CC[C@H](N)CC1 (some centres unmarked) [Compound 88, HCl] ?
> 75%

The origin of these recorded values is patent US20250188069A1.
